Test system: S. aureus MRO 00001
Assay: Agar Dilution Method MIC, S. aureus MRO 00001
Assay type: cell-based
Conditions: Staphylococcus aureus, MRO00001, Mueller Hinton Agar, 35° Celsius, 20 hours, read-out: Minimum Inhibitory Concentration (MIC in μg/ml)
Source text: Briefly, the compounds of invention were weighed, dissolved in Dimethyl Sulfoxide, serially diluted in the same solvent and then incorporated into molten Mueller Hinton Agar in a petridish before solidification, with each petridish containing a different concentration of a compound. […]
metric: MIC

Observe how each entry below is paired with its result.
- CC(=S)NC[C@H]1CN(c2ccc(N3CCN(C(=S)Cc4cccs4)CC3)c(F)c2)C(=O)O1: 0.25 µg/mL
- CC(=S)NC[C@H]1CN(c2ccc(N3CCN(C(=S)c4ccc(Cl)s4)CC3)c(F)c2)C(=O)O1: 0.25 µg/mL

Prompt: What MIC appears in the records for this molecule with S. aureus MRO 00001? CC(=S)NC[C@H]1CN(c2ccc(N3CCN(C(=S)c4ccc(C)s4)CC3)c(F)c2)C(=O)O1
Response: 0.25 µg/mL

Prompt: Under S. aureus MRO 00001: MIC value of CC(=S)NC[C@H]1CN(c2ccc(N3CCN(C(=S)c4ccc([N+](=O)[O-])o4)CC3)c(F)c2)C(=O)O1 ?
Response: 0.5 µg/mL

Prompt: Lab request: please report MIC under test system S. aureus MRO 00001 for CC(=S)NC[C@H]1CN(c2ccc(N3CCN(C(=S)NC(=O)c4ccccc4)CC3)c(F)c2)C(=O)O1
Response: 0.25 µg/mL

Prompt: Hi! What's the reported MIC for CC(=S)NC[C@H]1CN(c2ccc(N3CCN(C(=O)Nc4ccc([N+](=O)[O-])cc4)CC3)c(F)c2)C(=O)O1 on S. aureus MRO 00001?
Response: 0.25 µg/mL

Prompt: Lab note: need MIC for CC(=S)NC[C@H]1CN(c2ccc(N3CCN(C(=S)C4CC4)CC3)c(F)c2)C(=O)O1 on S. aureus MRO 00001, anyone have it?
Response: 0.25 µg/mL

Prompt: Form field - read-out: MIC; system: S. aureus MRO 00001; submitted item: CC(=S)NC[C@H]1CN(c2ccc(N3CCN(C(=S)c4ncc[nH]4)CC3)c(F)c2)C(=O)O1
Response: 0.5 µg/mL

Prompt: Query MIC on S. aureus MRO 00001 for CC(=S)NC[C@H]1CN(c2ccc(N3CCN(C(=S)c4cnccn4)CC3)c(F)c2)C(=O)O1
Response: 0.25 µg/mL

Prompt: Item CC(=S)NC[C@H]1CN(c2ccc(N3CCN(C(=S)c4ccsc4)CC3)c(F)c2)C(=O)O1 with S. aureus MRO 00001 - MIC?
Response: 0.25 µg/mL

Prompt: Which MIC is reported with S. aureus MRO 00001 for this entry: CC(=S)NC[C@H]1CN(c2ccc(N3CCN(C(=S)c4cccs4)CC3)c(F)c2)C(=O)O1 ?
Response: 0.5 µg/mL

Prompt: Requested read-out MIC, target or system S. aureus MRO 00001, entry CC(=S)NC[C@H]1CN(c2ccc(N3CCN(C(=S)Nc4ccc([N+](=O)[O-])cc4)CC3)c(F)c2)C(=O)O1
Response: 0.25 µg/mL
